Just for reference, patent US6818663B2 is where these values come from.

# tgt: human cyclin B-CDK1 (Homo sapiens)
# Sequence (P06493 whole entry): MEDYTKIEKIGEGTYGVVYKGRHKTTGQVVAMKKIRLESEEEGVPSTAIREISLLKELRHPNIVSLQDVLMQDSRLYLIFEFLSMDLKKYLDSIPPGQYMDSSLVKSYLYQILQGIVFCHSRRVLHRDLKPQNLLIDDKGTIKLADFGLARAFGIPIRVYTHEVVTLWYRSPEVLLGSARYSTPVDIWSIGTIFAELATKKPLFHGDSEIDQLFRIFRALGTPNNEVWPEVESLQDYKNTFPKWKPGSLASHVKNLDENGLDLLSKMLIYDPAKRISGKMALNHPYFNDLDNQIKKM
# Sequence (P14635 whole entry partner): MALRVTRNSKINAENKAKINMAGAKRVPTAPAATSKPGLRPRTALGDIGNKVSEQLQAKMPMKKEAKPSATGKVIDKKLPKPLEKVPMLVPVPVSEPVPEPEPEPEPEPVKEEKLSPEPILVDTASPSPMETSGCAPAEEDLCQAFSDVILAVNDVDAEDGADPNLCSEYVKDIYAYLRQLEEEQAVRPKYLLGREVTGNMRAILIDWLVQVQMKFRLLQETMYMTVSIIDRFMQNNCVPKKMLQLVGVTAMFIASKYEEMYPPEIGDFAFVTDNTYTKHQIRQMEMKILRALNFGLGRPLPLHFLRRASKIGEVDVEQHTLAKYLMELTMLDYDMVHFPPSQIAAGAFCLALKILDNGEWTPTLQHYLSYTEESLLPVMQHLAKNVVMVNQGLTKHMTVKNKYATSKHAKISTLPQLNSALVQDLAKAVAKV
# assay_method_text: FlashPlate kinase assay, cyclin B-CDK1, Rb substrate
# condition: recombinant cyclin B-CDK1, Rb phosphorylation, 1 μM ATP
pIC50: −log10 of the molar value.
The reader will find reported pIC50 values listed item by item below.
observation_type: pIC50

compound: CCNCCOc1ccc(Nc2nc(N)c(C(=O)c3cccc(CC)c3)s2)cc1 [Example 101, Acetic Acid]
observation_type: pIC50
recorded_number: 6.18
//
compound: CCNCCOc1ccc(Nc2nc(N)c(C(=O)c3cccc(OC)c3)s2)cc1 [Example 130]
observation_type: pIC50
recorded_number: 6.11
//
compound: Nc1nc(Nc2ccc(OCCN3CCCC3)cc2)sc1C(=O)c1cccc(F)c1 [Example 118, Acetic Acid]
observation_type: pIC50
recorded_number: 6.61
//
compound: Cc1cccc(C(=O)c2sc(Nc3ccc(OC4CCNC4)cc3)nc2N)c1 (centres unmarked) [Example 91, Acetic Acid]
observation_type: pIC50
recorded_number: 6.33
//
compound: CCc1cccc(C(=O)c2sc(Nc3ccc(OC4CCCNC4)cc3)nc2N)c1 (centres unmarked) [Example 98]
observation_type: pIC50
recorded_number: 6.28
//
compound: Nc1nc(Nc2ccc(OCCN3CCCC3)cc2)sc1C(=O)c1cccc(F)c1 [Example 36]
observation_type: pIC50
recorded_number: 6.47
//
compound: CN1CCC[C@H]1COc1ccc(Nc2nc(N)c(C(=O)c3cccc(F)c3)s2)cc1 [Example 44]
observation_type: pIC50
recorded_number: 6.23
//
compound: CN1CCC[C@H]1COc1ccc(Nc2nc(N)c(C(=O)c3cccc(C4CC4)c3)s2)cc1 [Example 113]
observation_type: pIC50
recorded_number: 5.41
//
compound: CCc1cc(C(=O)c2sc(Nc3ccc(OCCN4CCCC4)cc3)nc2N)ccc1F [Example 76]
observation_type: pIC50
recorded_number: 5.41
//
compound: CCN1CCCC(Oc2ccc(Nc3nc(N)c(C(=O)c4ccc(C)c(F)c4)s3)cc2)C1 (centres unmarked) [Example 87]
observation_type: pIC50
recorded_number: 6.35
//
compound: Nc1nc(Nc2ccc(OCCN3CCCC3)cc2)sc1C(=O)c1ccc(O)c(F)c1 [Example 120, Acetic Acid]
observation_type: pIC50
recorded_number: 6.37
//
compound: Cc1ccc(C(=O)c2sc(Nc3ccc(OC[C@@H]4CCCN4C)cc3)nc2N)cc1F [Example 114]
observation_type: pIC50
recorded_number: 6.07
//
compound: CCCc1cc(C(=O)c2sc(Nc3ccc(OC4CCCNC4)cc3)nc2N)ccc1O (centres unmarked) [Example 99]
observation_type: pIC50
recorded_number: 6.76
//
compound: CCN(CC)CCOc1ccc(Nc2nc(N)c(C(=O)c3ccc(OC)c(F)c3)s2)cc1 [Example 125]
observation_type: pIC50
recorded_number: 5.66
//
compound: Nc1nc(Nc2ccc(OCCN3CCCC3)cc2)sc1C(=O)c1ccc2c(c1)OCO2 [Example 57]
observation_type: pIC50
recorded_number: 6.42
//
compound: Cc1ccc(C(=O)c2sc(Nc3ccc(OCC(C)(C)N(C)C)cc3)nc2N)cc1F [Example 75]
observation_type: pIC50
recorded_number: 6.24
//
compound: CC(C)NCCOc1ccc(Nc2nc(N)c(C(=O)c3ccc4c(c3)OCO4)s2)cc1 [Example 137]
observation_type: pIC50
recorded_number: 6.34
